Just for reference, patent US5661144A is where these values come from.

Each entry below lists one item and its recorded MIC value.
# Tested on: C. freundii GN346/16
# Assay Explanation: Antibacterial activity (MIC), conventional two-fold dilution method
# Format: cell-based
# Experimental Conditions: Citrobacter freundii, 10^6 CFU/ml, Medium N, 35° C., 18 to 20 hours
# Protocol: The test was carried out in the following manner: 10^6 CFU/ml of a bacterium to be tested was inoculated on a Medium N for disc susceptibility test (manufactured by Nissui Pharmaceutical Co., Ltd.), and cultivated at 35° C. for 18 to 20 hours.
Return type: number; implicit unit µg/mL.

Solved cases (2 shown):
>>> result_number("Nc1nc(C(=NOCF)C(=O)NC2C(=O)N3C(C(=O)[O-])=C(C=CC[n+]4cc5sccn5c4)CSC23)ns1 (stereo not shown)")
0.05
>>> result_number("NC(=O)c1csc2c[n+](CC=CC3=C(C(=O)[O-])N4C(=O)C(NC(=O)C(=NOCF)c5nsc(N)n5)C4SC3)cn12 (stereo not shown)")
0.05

--- query ---
Query string: Answer with reported MIC of Cc1csc2c[n+](CC=CC3=C(C(=O)[O-])N4C(=O)C(NC(=O)C(=NOCF)c5nsc(N)n5)C4SC3)cn12 (stereo not shown)
Result string: 0.05

* * *

# collection of MIC values tested on P. auruginosa E-2

>>> result("Nc1nc(C(=NOCF)C(=O)NC2C(=O)N3C(C(=O)[O-])=C(C=CC[n+]4cc5sccn5c4)CSC23)ns1 (stereo not shown) [Example 1]")
"12.5 µg/mL"
>>> result("Cc1csc2c[n+](CC=CC3=C(C(=O)[O-])N4C(=O)C(NC(=O)C(=NOCF)c5nsc(N)n5)C4SC3)cn12 (stereo not shown) [Example 2]")
"25 µg/mL"
>>> result("NC(=O)c1csc2c[n+](CC=CC3=C(C(=O)[O-])N4C(=O)C(NC(=O)C(=NOCF)c5nsc(N)n5)C4SC3)cn12 (stereo not shown) [Example 3]")
"12.5 µg/mL"

--- query ---
Query string: Write MIC of Nc1nc(C(=NOCF)C(=O)NC2C(=O)N3C(C(=O)[O-])=C(C=CC[n+]4cc5sccn5c4CNC=O)CSC23)ns1 (stereo not shown) [Example 4] ; system used: P. auruginosa E-2
Result string: 12.5 µg/mL

* * *

# collection of MIC values tested on S. aureus 209P JC-1
Return type: number; implicit unit µg/mL.

Solved cases (3 shown):
>>> result_number("NC(=O)c1csc2c[n+](CC=CC3=C(C(=O)[O-])N4C(=O)C(NC(=O)C(=NOCF)c5nsc(N)n5)C4SC3)cn12 (stereo not shown)")
0.2
>>> result_number("Nc1nc(C(=NOCF)C(=O)NC2C(=O)N3C(C(=O)[O-])=C(C=CC[n+]4cc5sccn5c4CNC=O)CSC23)ns1 (stereo not shown)")
0.39
>>> result_number("Cc1csc2c[n+](CC=CC3=C(C(=O)[O-])N4C(=O)C(NC(=O)C(=NOCF)c5nsc(N)n5)C4SC3)cn12 (stereo not shown)")
0.2

Query string: Write MIC of Nc1nc(C(=NOCF)C(=O)NC2C(=O)N3C(C(=O)[O-])=C(C=CC[n+]4cc5sccn5c4)CSC23)ns1 (stereo not shown) ; system used: S. aureus 209P JC-1
Result string: 0.2

* * *

# Tested on: S. epidermidis ATCC14990
Outcome Measure: MIC (µg/mL)
Return type: number; implicit unit µg/mL.

Solved cases (3 shown):
>>> result_number("NC(=O)c1csc2c[n+](CC=CC3=C(C(=O)[O-])N4C(=O)C(NC(=O)C(=NOCF)c5nsc(N)n5)C4SC3)cn12 (stereo not shown)")
0.2
>>> result_number("Cc1csc2c[n+](CC=CC3=C(C(=O)[O-])N4C(=O)C(NC(=O)C(=NOCF)c5nsc(N)n5)C4SC3)cn12 (stereo not shown)")
0.2
>>> result_number("Nc1nc(C(=NOCF)C(=O)NC2C(=O)N3C(C(=O)[O-])=C(C=CC[n+]4cc5sccn5c4CNC=O)CSC23)ns1 (stereo not shown)")
0.2

--- query ---
Query string: Answer with reported MIC of Nc1nc(C(=NOCF)C(=O)NC2C(=O)N3C(C(=O)[O-])=C(C=CC[n+]4cc5sccn5c4)CSC23)ns1 (stereo not shown)
Result string: 0.1
